# credit: ChEMBL document CHEMBL3396966

# System: Escherichia coli
# test_name: Antimicrobial activity against Escherichia coli after 16 to 20 hrs by broth micro-dilution method
# Type: functional, organism-based
The source made the active and inactive calls. The calls are words filed in the database; no cut-off is given here. Non-standard residues stand in square brackets, D forms with d. Residues, ends and D or L forms follow the SMILES beside them. ξ: configuration not given here. ξHyp = O=C(O)C1CC(O)CN1
Classes used: yes (1) = active, no (0) = inactive

>>> answer_label("CCCCCCCCCCCC(=O)NCC(=O)N1CC(O)CC1C(=O)N[C@H](CCCCN)C(=O)O (some centres not stated)")
"yes (1)"
>>> answer_label("CC(=O)NCC(=O)N1CC(O)CC1C(=O)N[C@H](CCCCN)C(=O)O (some centres not stated)")
"yes (1)"
>>> answer_label("NCCCC[C@H](NC(=O)[C@H](Cc1cnc[nH]1)NC(=O)CN)C(=O)O (H-Gly-His-Lys-OH)")
"yes (1)"
>>> answer_label("CCCCCCCCCCCC(=O)NCC(=O)N1CC(O)CC1C(=O)N[C@@H](CCCCN)C(=O)O (some centres not stated)")
"yes (1)"
>>> answer_label("NCCCC[C@H](NC(=O)C1CC(O)CN1C(=O)CN)C(=O)O (some centres not stated) (H-Gly-[ξHyp]-Lys-OH)")
"yes (1)"
>>> answer_label("CSCC[C@H](NC(=O)CN)C(=O)N[C@@H](CCCCN)C(=O)O (H-Gly-Met-Lys-OH)")
"no (0)"
>>> answer_label("CSCC[C@H](NC(=O)C1CC(O)CN1C(=O)CN)C(=O)N[C@@H](CCCCN)C(=O)O (some centres not stated) (H-G[ξHyp]MK-OH)")
"no (0)"
